target: Recombinant human MASP2 enzyme (fragment corresponding to amino acids 297-686, C-terminal His Tag) (human, UniProt O00187 297-686); test: cell-based or functional assay
Sequence (O00187 other isoform, or with tags, fused parts or gaps limits assumed): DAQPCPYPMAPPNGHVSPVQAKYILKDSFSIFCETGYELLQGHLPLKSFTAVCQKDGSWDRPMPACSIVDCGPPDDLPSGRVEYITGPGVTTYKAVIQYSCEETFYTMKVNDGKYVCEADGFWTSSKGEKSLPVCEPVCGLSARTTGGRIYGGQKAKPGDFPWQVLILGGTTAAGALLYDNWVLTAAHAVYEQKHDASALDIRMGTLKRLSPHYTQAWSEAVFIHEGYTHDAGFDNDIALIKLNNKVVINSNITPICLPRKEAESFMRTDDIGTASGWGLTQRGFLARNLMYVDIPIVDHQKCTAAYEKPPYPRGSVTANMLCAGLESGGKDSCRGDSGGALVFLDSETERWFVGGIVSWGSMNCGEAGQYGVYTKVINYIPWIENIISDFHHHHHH
Bridge positions count the residues as written; N and C are the ends. Square brackets hold non-standard residues; d marks the D form. Ends that are not written are not given here. * marks the point of attachment. (N,N-diMe)A = (N,N-diMe)A, L-N,N-dimethylalanine, C[C@@H](C(=O)*)N(C)C; Oic = O=C(O)[C@@H]1C[C@@H]2CCCC[C@@H]2N1; NMeI = CC[C@H](C)[C@H](NC)C(=O)O; tBuAla = CC(C)(C)C[C@H](N)C(=O)O; Pen = CC(C)(S)[C@H](N)C(=O)O; 3Amb = NCc1cccc(C(=O)O)c1
So I've got a bunch of binders here, and I need their human MASP2 IC50 values.
Remember to follow the number with its unit.

Please review the following examples before continuing.
{"columns": ["binder", "human MASP2 IC50"],
 "data": [
  ["[3Amb]ICSRS[tBuAla]PPI[Pen]IP-NH2 (disulfide 3-11; N-terminus assumed; SMILES CC[C@H](C)[C@H](NC(=O)c1cccc(CN)c1)C(=O)N[C@H]1CSSC(C)(C)[C@@H](C(=O)N[C@H](C(=O)N2CCC[C@H]2C(N)=O)[C@@H](C)CC)NC(=O)[C@H]([C@@H](C)CC)NC(=O)[C@@H]2CCCN2C(=O)[C@@H]2CCCN2C(=O)[C@H](CC(C)(C)C)NC(=O)[C@H](CO)NC(=O)[C@H](CCCNC(=N)N)NC(=O)[C@H](CO)NC1=O) [(3-(Aminomethyl)benzoic acid)-IC+SRS-((tBu)A)-PPI-(Pen)+IP-NH2]", "0.016 µM"],
  ["G[NMeI]CSRSLPPICIP[dD]-OH (disulfide 3-11; N-terminus assumed; SMILES CC[C@H](C)[C@@H]1NC(=O)[C@@H]2CCCN2C(=O)[C@@H]2CCCN2C(=O)[C@H](CC(C)C)NC(=O)[C@H](CO)NC(=O)[C@H](CCCNC(=N)N)NC(=O)[C@H](CO)NC(=O)[C@@H](NC(=O)[C@H]([C@@H](C)CC)N(C)C(=O)CN)CSSC[C@@H](C(=O)N[C@H](C(=O)N2CCC[C@H]2C(=O)N[C@H](CC(=O)O)C(=O)O)[C@@H](C)CC)NC1=O) [G-((N-Me)I)-C+SRSLPPIC+IPd-OH]", "1.3 µM"],
  ["[dA]ICSRSLP[Oic]I[Pen]IP-NH2 (disulfide 3-11; N-terminus assumed; SMILES CC[C@H](C)[C@H](NC(=O)[C@@H](C)N)C(=O)N[C@H]1CSSC(C)(C)[C@@H](C(=O)N[C@H](C(=O)N2CCC[C@H]2C(N)=O)[C@@H](C)CC)NC(=O)[C@H]([C@@H](C)CC)NC(=O)[C@@H]2C[C@@H]3CCCC[C@@H]3N2C(=O)[C@@H]2CCCN2C(=O)[C@H](CC(C)C)NC(=O)[C@H](CO)NC(=O)[C@H](CCCNC(=N)N)NC(=O)[C@H](CO)NC1=O) [aIC+SRSLP-(Oic)-I-(Pen)+IP-NH2]", "0.059 µM"]
]}

input: Can you look up the measured human MASP2 IC50 of [(N,N-diMe)A]ICSRS[tBuAla]PPICIPD-NH2 (disulfide 3-11; N-terminus assumed; SMILES CC[C@H](C)[C@H](NC(=O)[C@H](C)N(C)C)C(=O)N[C@H]1CSSC[C@@H](C(=O)N[C@H](C(=O)N2CCC[C@H]2C(=O)N[C@@H](CC(=O)O)C(N)=O)[C@@H](C)CC)NC(=O)[C@H]([C@@H](C)CC)NC(=O)[C@@H]2CCCN2C(=O)[C@@H]2CCCN2C(=O)[C@H](CC(C)(C)C)NC(=O)[C@H](CO)NC(=O)[C@H](CCCNC(=N)N)NC(=O)[C@H](CO)NC1=O) [((N,N-diMe)A)-IC+SRS-((tBu)A)-PPIC+IPD-NH2] for me?
output: 0.12 µM
